# assay system: human FXR (Homo sapiens)
# Construct: expressed in transfected cells; host or cells: HEK293 cells stably carrying a 5xGal4-response-element firefly luciferase reporter, transiently transfected with the pcDNA3.1-Gal4-FXR plasmid
# Sequence (Q96RI1 262-486 limits assumed): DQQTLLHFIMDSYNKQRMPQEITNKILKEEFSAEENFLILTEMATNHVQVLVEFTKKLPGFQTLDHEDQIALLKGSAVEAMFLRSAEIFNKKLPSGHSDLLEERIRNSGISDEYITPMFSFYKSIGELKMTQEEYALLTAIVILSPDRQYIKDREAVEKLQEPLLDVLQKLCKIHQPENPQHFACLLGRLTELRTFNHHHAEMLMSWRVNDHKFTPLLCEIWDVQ
# protocol text: transient human FXR/Gal4-luciferase reporter assay
# Type: cell-based
# cond: Gal4-hFXR reporter in HEK293 cells; relative to 8 μM GW-4064; read-out: FXR EC50
measured parameter: log10 EC50 (log10 of the value in nM)
The base-10 logarithm of EC50, taken with EC50 in nM, is what appears here.

Here are 3 compounds together with their reported answers.
COc1cc(C(=O)O)nc2ccc(N3CCC4(CC3)CC(Cc3c(-c5ccccc5C(F)(F)F)noc3C3CC3)C4)cc12 = 1.23
O=C(O[C@@H]1O[C@H](C(=O)O)[C@@H](O)[C@H](O)[C@H]1O)c1cc(C(F)(F)F)c2cc(N3CCC4(CC3)CC(Cc3c(-c5ccccc5C(F)(F)F)noc3C3CC3)C4)ccc2n1 = 1.56
C=Cc1cncc(Cl)c1-c1noc(C2CC2)c1C=C1CC2(CCN(c3ccc4nc(C(=O)O)cc(C(F)(F)F)c4c3)CC2)C1 = 1.57

Please state, for each entry, its recorded log10 EC50.
1. COc1cc(C(=O)O)nc2ccc(N3CCC4(CC3)CC(=Cc3c(-c5c(Cl)cncc5Cl)noc3C3CC3)C4)cc12
2. COc1cc(N2CCC3(CC2)CC(Cc2c(-c4c(Cl)cccc4Cl)noc2C2CC2)C3)ccc1OCC(=O)O
3. C=Cc1cncc(Cl)c1-c1noc(C2CC2)c1C=C1CC2(CCN(c3nc4c(F)cc(C(=O)O)cc4s3)CC2)C1

Data returned:
1: 1.15; 2: 2.70; 3: 2.54
